target.or.test.system: Induced myeloid leukemia cell differentiation protein Mcl-1 (Homo sapiens, UniProt Q07820)
Sequence (Q07820 whole entry): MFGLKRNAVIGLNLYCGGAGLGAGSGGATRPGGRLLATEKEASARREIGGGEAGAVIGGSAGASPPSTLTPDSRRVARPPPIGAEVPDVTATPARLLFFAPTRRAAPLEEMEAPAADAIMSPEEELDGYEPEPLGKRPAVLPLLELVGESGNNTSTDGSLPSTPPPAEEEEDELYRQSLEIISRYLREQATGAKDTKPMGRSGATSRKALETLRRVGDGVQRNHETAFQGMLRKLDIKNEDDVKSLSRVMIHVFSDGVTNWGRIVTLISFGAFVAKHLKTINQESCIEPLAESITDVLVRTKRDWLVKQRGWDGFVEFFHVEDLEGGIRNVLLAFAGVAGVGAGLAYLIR
method.description: Displacement of Flu-BID/FAM-BID from His-tagged MCL1 (171 to 327) (unknown origin) expressed in Escherichia coli BL21(DE3) after 3 hrs by fluorescence polarization assay
quantity.kind: Ki (µM)
Numeric only. Scale: µM

Q. Request: Ki, test system Induced myeloid leukemia cell differentiation protein Mcl-1 (Homo sapiens, UniProt Q07820), entry O=C(O)CSc1cc(NS(=O)(=O)c2ccc(-c3ccc(F)cc3F)cc2)c2ccccc2c1O
A. 0.24

Q. Request: Ki, test system Induced myeloid leukemia cell differentiation protein Mcl-1 (Homo sapiens, UniProt Q07820), entry O=C(O)CSc1cc(NS(=O)(=O)N2CCN(c3ccccc3)CC2)c2ccccc2c1O
A. 2.22

Q. Request: Ki, test system Induced myeloid leukemia cell differentiation protein Mcl-1 (Homo sapiens, UniProt Q07820), entry CC(=O)Oc1c(SCC(=O)O)cc(NS(=O)(=O)c2ccc(Br)cc2)c2ccccc12
A. 34

Q. Request: Ki, test system Induced myeloid leukemia cell differentiation protein Mcl-1 (Homo sapiens, UniProt Q07820), entry O=C(O)CSc1cc(NS(=O)(=O)c2ccc(Oc3ccc(F)cc3)cc2)c2ccccc2c1O
A. 0.29

Q. Request: Ki, test system Induced myeloid leukemia cell differentiation protein Mcl-1 (Homo sapiens, UniProt Q07820), entry O=S(=O)(Nc1cc(CCCO)c(O)c2ccccc12)c1ccc(Br)cc1
A. 3.79

Q. Request: Ki, test system Induced myeloid leukemia cell differentiation protein Mcl-1 (Homo sapiens, UniProt Q07820), entry O=C(O)CSc1cc(NS(=O)(=O)c2ccc(Br)cc2)ccc1O
A. 283

Q. Request: Ki, test system Induced myeloid leukemia cell differentiation protein Mcl-1 (Homo sapiens, UniProt Q07820), entry COc1c(SCC(=O)O)cc(NS(=O)(=O)c2ccc(-c3ccccc3)cc2)c2ccccc12
A. 20

Q. Request: Ki, test system Induced myeloid leukemia cell differentiation protein Mcl-1 (Homo sapiens, UniProt Q07820), entry O=C(O)CSc1cc(NC(=O)Cc2ccccc2)c2ccccc2c1O
A. 59.4

Q. Request: Ki, test system Induced myeloid leukemia cell differentiation protein Mcl-1 (Homo sapiens, UniProt Q07820), entry COc1c(SCC(=O)O)cc(NS(=O)(=O)c2cccc(-c3ccccc3)c2)c2ccccc12
A. 24.2

Q. Request: Ki, test system Induced myeloid leukemia cell differentiation protein Mcl-1 (Homo sapiens, UniProt Q07820), entry CS(=O)(=O)Nc1cc(SCC(=O)O)c(O)c2ccccc12
A. 74.9

Q. Request: Ki, test system Induced myeloid leukemia cell differentiation protein Mcl-1 (Homo sapiens, UniProt Q07820), entry O=S(=O)(Nc1cc(SCc2nnn[nH]2)c(O)c2ccccc12)c1ccc(Oc2ccccc2)cc1
A. 0.21

Q. Request: Ki, test system Induced myeloid leukemia cell differentiation protein Mcl-1 (Homo sapiens, UniProt Q07820), entry COc1ccc(S(=O)(=O)Nc2cc(SCC(=O)O)c(O)c3ccccc23)cc1
A. 9.31

Q. Request: Ki, test system Induced myeloid leukemia cell differentiation protein Mcl-1 (Homo sapiens, UniProt Q07820), entry O=C(O)CSc1cc(CNS(=O)(=O)c2ccccc2)c2ccccc2c1O
A. 64.8

Q. Request: Ki, test system Induced myeloid leukemia cell differentiation protein Mcl-1 (Homo sapiens, UniProt Q07820), entry O=S(=O)(Nc1cc(SCc2nnn[nH]2)c(O)c2ccccc12)c1ccc(Br)cc1
A. 1.01
